Origin of values: patent US20080026998

testedTarget: T1, plasmin (human, UniProt P00747)
T1 chain: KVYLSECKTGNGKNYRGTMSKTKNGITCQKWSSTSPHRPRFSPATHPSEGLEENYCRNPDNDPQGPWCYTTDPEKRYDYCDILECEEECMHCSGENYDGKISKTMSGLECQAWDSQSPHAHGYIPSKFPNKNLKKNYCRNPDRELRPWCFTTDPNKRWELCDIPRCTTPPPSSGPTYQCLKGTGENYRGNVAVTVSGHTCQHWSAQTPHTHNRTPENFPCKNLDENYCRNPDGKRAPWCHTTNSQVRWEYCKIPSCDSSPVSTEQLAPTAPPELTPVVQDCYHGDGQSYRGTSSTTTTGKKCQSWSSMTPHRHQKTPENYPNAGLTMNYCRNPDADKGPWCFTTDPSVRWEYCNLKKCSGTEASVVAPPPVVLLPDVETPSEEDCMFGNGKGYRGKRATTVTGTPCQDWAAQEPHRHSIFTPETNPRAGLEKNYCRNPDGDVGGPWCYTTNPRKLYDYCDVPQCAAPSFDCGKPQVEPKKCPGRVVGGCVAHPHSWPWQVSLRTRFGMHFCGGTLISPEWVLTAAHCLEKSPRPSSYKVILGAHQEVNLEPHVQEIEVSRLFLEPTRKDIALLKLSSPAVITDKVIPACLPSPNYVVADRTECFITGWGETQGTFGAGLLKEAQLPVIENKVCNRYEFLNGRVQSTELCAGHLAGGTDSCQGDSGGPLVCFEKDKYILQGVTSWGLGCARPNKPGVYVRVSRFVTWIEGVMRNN
resultType: Ki (nM)
Give bare numbers, in nM.

In the examples that follow, each entry is paired with its recorded Ki.
binder: KD1 wild-type (protein) DAAQEPTGNNAEICLLPLDYGPCRALLLRYYYDRYTQSCRQFLYGGCEGNANNFYTWEACDDACWRIEKVPKV
Ki (nM): 5.3

binder: KD1 R24K (protein) DAAQEPTGNNAEICLLPLDYGPCKALLLRYYYDRYTQSCRQFLYGGCEGNANNFYTWEACDDACWRIEKVPKV
Ki (nM): 1.1

Below: the item to evaluate.
// recorded Ki for KD1 R24K/L26R (protein) DAAQEPTGNNAEICLLPLDYGPCKARLLRYYYDRYTQSCRQFLYGGCEGNANNFYTWEACDDACWRIEKVPKV : 0.625
